test: chemical genetic growth profiling, strain panel (AID 1159580);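 also: tested at 20 µM; growth read once vehicle control cultures reached saturation at 30 °C; 1 = growth at the plate median or of vehicle wells; lower values mean less growth of the strain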; conditions: S. cerevisiae deletion strains, growth OD, locus YOR290C, strain snf2, active compounds read low
Hit rate of the full screen: of about 5,500 compounds, about 2,000 (36%) were called active. About 18% were inconclusive and are not listed. The list shows a part of the results.
# maps each entry to its normalized growth
Just the number.

1. CC(C)=CCc1c(O)cc2oc(C)cc(=O)c2c1O :: 0.939
2. OC(CCN1CCCCC1)(c1ccccc1)c1ccccc1 :: 1
3. CC(C(=O)O)c1ccc2c(c1)[nH]c1ccc(Cl)cc12 (stereo not given) :: 0.95
4. CCCCOc1ccc(C(=O)CCN2CCCCC2)cc1 :: 0.882
5. NC/C=C/C(=O)O :: 0.993
6. Cc1cc(C(C)(C)CC(C)(C)C)ccc1OCCOCC[N+](C)(C)Cc1ccccc1 :: 0.0584
7. CCCCOc1ccc(OCCCN2CCOCC2)cc1 :: 0.917
8. Cn1cc[nH]c1=S :: 0.955
9. COc1ccc(-c2coc3c(O)c(OC)ccc3c2=O)cc1 :: 0.807
10. CN=C(NC#N)NCCSCc1nc(N=C(N)N)cs1 :: 1.01

Sure, the documented normalized growth for `C1CCc2nnnn2CC1` is 1.01

Sure, the documented normalized growth for `CCCCCCCCCCCCC[N+](C)(C)Cc1ccccc1` is 0.0603

Sure, the documented normalized growth for `S=C=NCc1ccccc1` is 0.0951

Sure, the documented normalized growth for `CCC1(c2ccccc2)C(=O)NCNC1=O` is 1.01

Sure, the documented normalized growth for CC(=O)[C@H]1CCC2C3C[C@H](C)C4=CC(=O)CC[C@]4(C)C3[C@@H](O)C[C@@]21C (stereo not given in full) is 0.895

Sure, the documented normalized growth for `Cc1c(N(C)C)c(=O)n(-c2ccccc2)n1C` is 0.996

Sure, the documented normalized growth for `CCN(CC)C(=S)SSC(=S)N(CC)CC` is 0.627

Sure, the documented normalized growth for `CC(C)N(C(=O)CCl)c1ccccc1` is 0.928

Sure, the documented normalized growth for `O=C(O)c1cc(=O)c2ccc(Cl)cc2[nH]1` is 1.06

Sure, the documented normalized growth for `CC(C)(C)CC(C)(C)c1ccc(OCCOCC[N+](C)(C)Cc2ccccc2)cc1` is 0.0712

Sure, the documented normalized growth for C=C1CC[C@H](O)C/C1=C/C=C1\CCC[C@]2(C)C([C@H](C)/C=C/[C@H](C)C(C)C)CC[C@@H]12 (stereo not given in full) is 1.02

Sure, the documented normalized growth for `COc1ccc(-c2coc3c(OC)c(OC)cc(O)c3c2=O)cc1` is 0.986

Sure, the documented normalized growth for CC(=O)O[C@]1(C(C)=O)CCC2C3C[C@H](C)C4=CC(=O)CC[C@]4(C)C3CC[C@@]21C (stereo not given in full) is 0.873

Sure, the documented normalized growth for `COc1c2c(c(CC=C(C)C)c3oc(=O)c(-c4ccc(O)cc4)c(O)c13)OC(C)(C)C=C2` is 0.631

Sure, the documented normalized growth for CC(=O)O[C@]1(C(C)=O)CCC2C3C=C(C)C4=CC(=O)CCC4(C)C3CCC21C (stereo not given in full) is 0.969
